test: Solubility in pH 1.0 buffer; type: physicochemical
readout-kind: solubility (mg/mL)
Give the value in mg/mL but do not write mg/mL after it.

# input molecule: COc1c(O)cc2c(c1O)[C@@H]1O[C@H](CO)[C@@H](O)[C@H](O)[C@H]1OC2=O [BERGENIN] ; wanted: its solubility 1.29

====

target: Interleukin-6 (Homo sapiens)
Sequence (P05231 whole entry): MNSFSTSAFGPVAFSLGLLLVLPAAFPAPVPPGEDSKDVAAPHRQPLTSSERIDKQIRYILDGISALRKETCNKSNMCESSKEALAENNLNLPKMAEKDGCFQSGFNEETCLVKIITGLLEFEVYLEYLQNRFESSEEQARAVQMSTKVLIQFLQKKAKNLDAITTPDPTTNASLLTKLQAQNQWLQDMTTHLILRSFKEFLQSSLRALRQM
readout-kind: IC50 (nM)
Quick note: give the figure in nM, leave out the unit.

Query (compound): COc1c(O)cc2c(c1O)[C@@H]1O[C@H](CO)[C@@H](O)[C@H](O)[C@H]1OC2=O [BERGENIN] ; field requested: IC50 208

====

target: Tumor necrosis factor (Homo sapiens, UniProt P01375)
Sequence (P01375 whole entry): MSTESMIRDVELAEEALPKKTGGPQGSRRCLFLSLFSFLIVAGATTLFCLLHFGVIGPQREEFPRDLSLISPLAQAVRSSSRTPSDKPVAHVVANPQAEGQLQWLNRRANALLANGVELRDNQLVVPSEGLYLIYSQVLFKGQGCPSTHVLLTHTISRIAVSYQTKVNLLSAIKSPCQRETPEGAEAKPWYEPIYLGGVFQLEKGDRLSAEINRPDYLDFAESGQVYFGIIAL
readout-kind: IC50 (µM)
Give the quantity in µM, number only.

So what does the record say about IC50 for COc1c(O)cc2c(c1O)[C@@H]1O[C@H](CO)[C@@H](O)[C@H](O)[C@H]1OC2=O ? 12.5

====

assay: Distribution coefficient, log D of the compound in PBS/n-octanol at pH 7.4 at 25 degC by HPLC method; assay type: physicochemical
Please use YES whenever logD is not below 0.4, and NO whenever it is.

Is logD at least 0.4? Consider COc1c(OC(=O)c2ccc(C(C)(C)C)cc2)cc2c(c1OC(=O)c1ccc(C(C)(C)C)cc1)[C@@H]1O[C@H](COC(=O)c3ccc(C(C)(C)C)cc3)[C@@H](OC(=O)c3ccc(C(C)(C)C)cc3)[C@H](OC(=O)c3ccc(C(C)(C)C)cc3)[C@H]1OC2=O NO

Threshold query (logD >= 0.4) on COc1c(OC(=O)c2c(Cl)cc(Cl)cc2Cl)cc2c(c1O)[C@@H]1O[C@H](COC(=O)c3c(Cl)cc(Cl)cc3Cl)[C@@H](O)[C@H](O)[C@H]1OC2=O YES

Quick check, logD >= 0.4? CCCCCCCC(=O)OC[C@H]1O[C@H]2c3c(cc(OC(=O)CCCCCCC)c(OC)c3OC(=O)CCCCCCC)C(=O)O[C@@H]2[C@@H](OC(=O)CCCCCCC)[C@@H]1OC(=O)CCCCCCC YES

Check the entry COc1c(OC(=O)c2ccc(C(C)(C)C)cc2)cc2c(c1OC(=O)c1ccc(C(C)(C)C)cc1)[C@@H]1O[C@H](COC(=O)c3ccc(C(C)(C)C)cc3)[C@@H](O)[C@H](O)[C@H]1OC2=O : does logD equal or exceed 0.4? YES

Please check the record COc1c(OC(C)=O)cc2c(c1O)[C@@H]1O[C@H](COC(C)=O)[C@@H](O)[C@H](O)[C@H]1OC2=O and state if its logD is at or above 0.4. NO

Can COc1c(OC(C)=O)cc2c(c1OC(C)=O)[C@@H]1O[C@H](COC(C)=O)[C@@H](OC(C)=O)[C@H](O)[C@H]1OC2=O be said to have logD at or above 0.4? YES

====

assay: Partition coefficient, log P of the compound in water/n-octanol at pH 7.4 at 25 degC by HPLC method; format: physicochemical
Can you tell me logP for the items I'm about to list?
Answer field: number only, no words.

So what's the measured logP for this one? COc1c(OC(C)=O)cc2c(c1O)[C@@H]1O[C@H](COC(C)=O)[C@@H](O)[C@H](O)[C@H]1OC2=O -0.494

Which value of logP has been reported for CCCCCC(=O)OC[C@H]1O[C@H]2c3c(cc(OC(=O)CCCCC)c(OC)c3OC(=O)CCCCC)C(=O)O[C@@H]2[C@@H](OC(=O)CCCCC)[C@@H]1OC(=O)CCCCC in the records? 5.967

Would you mind telling me what logP value was observed for CCCOc1cc2c(c(OCCC)c1OC)[C@@H]1O[C@H](CO)[C@@H](O)[C@H](O)[C@H]1OC2=O ? 1.655

Form field: reported logP of COc1c(OC(=O)c2ccc(C(C)(C)C)cc2)cc2c(c1OC(=O)c1ccc(C(C)(C)C)cc1)[C@@H]1O[C@H](COC(=O)c3ccc(C(C)(C)C)cc3)[C@@H](OC(=O)c3ccc(C(C)(C)C)cc3)[C@H](OC(=O)c3ccc(C(C)(C)C)cc3)[C@H]1OC2=O 0.771

Param item = CCCCCCCC(=O)OC[C@H]1O[C@H]2c3c(cc(OC(=O)CCCCCCC)c(OC)c3OC(=O)CCCCCCC)C(=O)O[C@@H]2[C@@H](OC(=O)CCCCCCC)[C@@H]1OC(=O)CCCCCCC ; retrieve measured logP. 6.011

Param item = COc1c(OC(=O)c2ccc([N+](=O)[O-])cc2)cc2c(c1O)[C@@H]1O[C@H](COC(=O)c3ccc([N+](=O)[O-])cc3)[C@@H](O)[C@H](O)[C@H]1OC2=O ; retrieve measured logP. 2.508

Suppose we examine the molecule COc1c(O)cc2c(c1O)[C@@H]1O[C@H](COC(=O)c3ccc([N+](=O)[O-])cc3)[C@@H](O)[C@H](O)[C@H]1OC2=O ; what logP value has been reported? 1.563

For the molecule shown here, COc1c(OC(C)=O)cc2c(c1OC(C)=O)[C@@H]1O[C@H](COC(C)=O)[C@@H](OC(C)=O)[C@H](OC(C)=O)[C@H]1OC2=O [BERGENIN PENTAACETATE] , give the reported logP. 1.155

# get_value(readout='logP', item= COc1c(OC(=O)CC(C)C)cc2c(c1OC(=O)CC(C)C)[C@@H]1O[C@H](COC(=O)CC(C)C)[C@@H](OC(=O)CC(C)C)[C@H](OC(=O)CC(C)C)[C@H]1OC2=O ) 6.358

# get_value(readout='logP', item= COc1c(O)cc2c(c1O)[C@@H]1O[C@H](CO)[C@@H](O)[C@H](O)[C@H]1OC2=O ) -0.555

So what's the measured logP for this one? COc1c(OC(=O)c2c(F)cccc2F)cc2c(c1O)[C@@H]1O[C@H](COC(=O)c3c(F)cccc3F)[C@@H](O)[C@H](O)[C@H]1OC2=O 1.801

====

assay: Distribution coefficient, log D of the compound in PBS/n-octanol at pH 7.4 at 25 degC by HPLC method; format: physicochemical
readout-kind: logD
Form field (numeric): enter value without unit.

Sample COc1c(OC(=O)c2ccc([N+](=O)[O-])cc2)cc2c(c1O)[C@@H]1O[C@H](COC(=O)c3ccc([N+](=O)[O-])cc3)[C@@H](O)[C@H](O)[C@H]1OC2=O — what was its logD? 2.65

Look up logD for this compound: COc1c(OCc2ccccc2)cc2c(c1OCc1ccccc1)[C@@H]1O[C@H](CO)[C@@H](O)[C@H](O)[C@H]1OC2=O 1.98

Dear colleague, I am looking for the recorded logD of the following compound: COc1c(OC(=O)c2ccccc2)cc2c(c1OC(=O)c1ccccc1)[C@@H]1O[C@H](COC(=O)c3ccccc3)[C@@H](O)[C@H](O)[C@H]1OC2=O 1.77

logD for CCCOc1cc2c(c(OCCC)c1OC)[C@@H]1O[C@H](CO)[C@@H](O)[C@H](O)[C@H]1OC2=O ? 1.51

Give its logD value. Item: COc1c(OC(=O)CC(C)C)cc2c(c1OC(=O)CC(C)C)[C@@H]1O[C@H](COC(=O)CC(C)C)[C@@H](OC(=O)CC(C)C)[C@H](OC(=O)CC(C)C)[C@H]1OC2=O 6.45

logD lookup needed for COc1c(OC(=O)c2ccccc2C)cc2c(c1OC(=O)c1ccccc1C)[C@@H]1O[C@H](COC(=O)c3ccccc3C)[C@@H](OC(=O)c3ccccc3C)[C@H](O)[C@H]1OC2=O , thanks. 1.61

What value of measured logD is listed for COc1c(OC(C)=O)cc2c(c1OC(C)=O)[C@@H]1O[C@H](COC(C)=O)[C@@H](OC(C)=O)[C@H](OC(C)=O)[C@H]1OC2=O [BERGENIN PENTAACETATE] ? 0.516

Suppose we examine the compound CCCCOc1cc2c(c(OCCCC)c1OC)[C@@H]1O[C@H](CO)[C@@H](O)[C@H](O)[C@H]1OC2=O ; what logD value has been reported? 2.83

Please look up its logD: COc1c(O)cc2c(c1O)[C@@H]1O[C@H](COC(=O)c3ccc([N+](=O)[O-])cc3)[C@@H](O)[C@H](O)[C@H]1OC2=O 1.53

What measured logD goes with CCCCCC(=O)OC[C@H]1O[C@H]2c3c(cc(OC(=O)CCCCC)c(OC)c3OC(=O)CCCCC)C(=O)O[C@@H]2[C@@H](OC(=O)CCCCC)[C@@H]1OC(=O)CCCCC ? 6.06

Which logD value belongs to COc1c(OC(=O)c2c(F)cccc2F)cc2c(c1O)[C@@H]1O[C@H](COC(=O)c3c(F)cccc3F)[C@@H](O)[C@H](O)[C@H]1OC2=O ? 1.86

If you can, please state the reported logD value of COc1c(O)cc2c(c1O)[C@@H]1O[C@H](CO)[C@@H](O)[C@H](O)[C@H]1OC2=O . -0.947
